Form field: pEC50 (one value per entry).
target: S1P1 receptor (Homo sapiens); construct: membrane preparation; assay: 35S-GTPγS binding assay using membrane preparation of CHO cell stably expressing S1P1 receptor; conditions: agonist activity
Sequence (P21453 whole entry): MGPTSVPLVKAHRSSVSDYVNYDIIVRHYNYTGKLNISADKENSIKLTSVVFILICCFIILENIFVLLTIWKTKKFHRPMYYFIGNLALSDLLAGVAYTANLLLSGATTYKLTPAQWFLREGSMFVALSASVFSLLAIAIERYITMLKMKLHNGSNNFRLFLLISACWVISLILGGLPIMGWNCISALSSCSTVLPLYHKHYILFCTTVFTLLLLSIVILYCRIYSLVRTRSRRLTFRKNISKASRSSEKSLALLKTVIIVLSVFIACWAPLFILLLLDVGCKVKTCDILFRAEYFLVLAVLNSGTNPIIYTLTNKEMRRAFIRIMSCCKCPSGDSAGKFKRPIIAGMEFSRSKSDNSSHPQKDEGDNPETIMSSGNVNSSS
A value of pEC50 is the negative decimal logarithm of a concentration given in moles per litre.

Cc1cc(-c2nc(-c3ccc(CNCCC(=O)O)cc3)no2)ccc1-c1cccc(C(F)(F)F)c1 [Example 76] :: 9.46
Cc1cc(-c2nc(-c3ccc(CNCCC(=O)O)cc3)no2)ccc1C1CCCC1 [Example 91] :: 9.60

-- ask Record request: pEC50 value, item Cc1cc(-c2nc(-c3ccc(CNCCC(=O)O)cc3)no2)ccc1-c1ccco1 [Example 116]
-- reply 8.82

-- ask Thanks! And Cl.N#Cc1ccccc1-c1ccc(-c2nc(-c3ccc(CNCCC(=O)O)cc3)no2)cc1OC(F)(F)F [Example 106] ?
-- reply 8.92

-- ask Next up: O=C(O)[C@@H]1CC=C[C@@H](NCc2ccc(OCc3cc(-c4ccccc4)c(C(F)(F)F)s3)cc2)C1 [Example 24]
-- reply 7.06
